TARGET_UNDER_TEST: T1, hu-CD74 antigen (R&D SYSTEMS catalog #3590-CD-050) (human, UniProt P04233-2 73-232, limits assumed)
T1 construct: Bought antigen; also called rhCD74; human CD74
T1 sequence (looked up): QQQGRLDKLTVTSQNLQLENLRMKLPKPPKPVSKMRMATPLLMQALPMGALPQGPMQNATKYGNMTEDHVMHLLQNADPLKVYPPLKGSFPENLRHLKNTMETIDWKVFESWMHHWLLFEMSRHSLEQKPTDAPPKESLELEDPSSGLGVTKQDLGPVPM
ASSAY_EXPLANATION: SPR (Biacore T200), captured on anti-human Fc, rhCD74 analyte
Hi there, I'd appreciate the recorded kon for every entry that follows.
Answers are plain numbers, in M⁻¹ s⁻¹.

These solved cases illustrate the format of a correct answer.
1275-D01 light chain paired with HC 1251-A06 (SEQ ID NO: 310) (antibody, human IgG1, V domains shown) VH: QVQLVESGGGVVQPGRSLRLSCAASGFDFSSYGMHWVRQAPDKGLEWVAVIWDDGSDRYYADSVKGRFTISRDNSKNTLYLQMNSLRAEDTAVYYCARGGTRVLGAIHGTDVWGQGTTVTVSS VL: DIQMTQSPSSLSASVGDRVTITCRASQGIGRWLAWYQQKPEKAPKSLIYGRSSLQSGVPSRFSGSGSGTDFTLTISSLQPEDFATYYCQQYNIYPLTFGGGTKVEIK ... 659000
1251-F06 heavy chain paired with VL SEQ ID NO: 272 (antibody, V domains shown) VH: QVQLVESGGGVVQPGRSLRLSCAASGFTFSSFGMHWVRQAPDKGLEWVAVIWYDGSNEYYADSVKGRFTISRDNSKNTLYLQMNSLRAEDTAVYYCARGGSLVTRGVYGLDVWGQGTTVTVSS VL: DIQMTQSPSSLSASVGDRVTITCRASQGISSWLAWYQQKPEKAPKSLIYAASSLQSGVPSRFSGSGSGTDFTLTISSLQPEDFATYYCQQYNSYPLTFGGGTKVEIK ... 2.15e+06

Consider the additional binder presented here.
# binder 1251-D06 heavy chain paired with VL SEQ ID NO: 272 (antibody, V domains shown) VH: QVQLVESGGGVVQPGRSLRLSCAASGFSFGSYGMHWVRQAPDKGLEWVAVVWYDGSKTIYADSVKGRFTISRDNSKNTLYLQMNSLRAEDTAVYYCARGGTLVRGAVYGLDVWGQGTTVTVSS VL: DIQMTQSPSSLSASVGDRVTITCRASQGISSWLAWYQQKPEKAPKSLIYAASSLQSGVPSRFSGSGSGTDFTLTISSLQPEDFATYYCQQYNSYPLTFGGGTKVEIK ; its kon = 2.3e+06
